For reference, the following IC50 results for High affinity nerve growth factor receptor (Homo sapiens, UniProt P04629) were taken from various sources.
RESULT_TYPE: IC50 (nM)

Check out these entries, answers already filled in.
[
  {
    "MOLECULE": "N#Cc1n[nH]c2ccc(NCc3cc(F)ccc3OCC(F)F)cc12",
    "TARGET_DESC": "High affinity nerve growth factor receptor (Homo sapiens, UniProt P04629)",
    "UNIT_STRING": "nM",
    "IC50": 32
  },
  {
    "MOLECULE": "CN(C)C1CCN(c2ccc3c(Nc4n[nH]c5ccc(Cc6cc(F)cc(F)c6)cc45)ncnc3c2)C1 (configuration not stated)",
    "TARGET_DESC": "High affinity nerve growth factor receptor (Homo sapiens, UniProt P04629)",
    "UNIT_STRING": "nM",
    "IC50": 2.3
  },
  {
    "MOLECULE": "Fc1ccc(OCC(F)F)c(CNc2ccc3[nH]nc(-c4cnoc4)c3c2)c1",
    "TARGET_DESC": "High affinity nerve growth factor receptor (Homo sapiens, UniProt P04629)",
    "UNIT_STRING": "nM",
    "IC50": 5
  },
  {
    "MOLECULE": "CN(C)C1CCN(c2ccc3c(Nc4n[nH]c5ccc(Cc6cc(F)cc(F)c6)cc45)n[nH]c3c2)C1 (configuration not stated)",
    "TARGET_DESC": "High affinity nerve growth factor receptor (Homo sapiens, UniProt P04629)",
    "UNIT_STRING": "nM",
    "IC50": 1.9
  }
]

a = Cc1cc(-c2ccc(NC(=O)Nc3ccc(C(C)(C)C)cc3)cc2)c2c(N)noc2n1
b = Fc1ccc(OCC(F)F)c(CNc2ccc3[nH]nc(-n4ccnn4)c3c2)c1
In terms of reported IC50, does a or b have the smaller number? # reply format: chosen label
b
